System: 786-0 renal
Experiment: NCI-60 one-dose screen, 48 h (100 = growth as untreated, 0 = no growth, -100 = all killed)
Settings: 10 µM unless noted
This is part of a sample that, as a whole, favours compounds with a hit. Of some 83,000 tested, about 20% had one in any assay.
measured.parameter: growth (%)
// note: answer is a bare numeric in %

{"molecule": "COCCOc1ccc(-c2csc(NC(=O)CN3CCN(CCO)CC3)n2)cc1NS(=O)(=O)c1cccc2c(N(C)C)cccc12", "growth, %": 37.1}
{"molecule": "Cc1cc(O)c(=O)cc2c1C[C@H]1CC(C)(C)/C=C/C[C@]3(C)Oc4cc(=O)c(O)cc(C)c4C[C@H]3C[C@H](O)[C@@]1(C)O2", "growth, %": -24.3}
{"molecule": "Oc1ccc(-c2nnc(SCc3ccc(O)c4ncccc34)o2)cc1", "growth, %": 20.5}
{"molecule": "COc1cc(/C=N/Nc2ccnc3cc(Cl)ccc23)cc(OC)c1O", "growth, %": -87.5}
{"molecule": "CN(c1ccc(F)cc1)S(=O)(=O)c1ccc(-c2cnc(C3CC3)o2)cc1", "growth, %": 50.3}
{"molecule": "CN1CCN(Cc2ccc(NC(=O)c3cncc(C#Cc4cnc5ccc(O[C@H]6CCOC6)nn45)c3)cc2C(F)(F)F)CC1", "growth, %": -89.7}

Query C=C1C(=O)O[C@@H]2C[C@@H](C)CCC(=O)[C@](C)(OC(C)=O)C[C@H](OC(=O)/C(C)=C\C)[C@@H]12 yields growth of 90.8

Measured growth, CC(C)(C)CC(C)(C)n1nnnc1C(Nc1ccccc1)c1cc2cccc3ccc4cccc1c4c32 (stereo not drawn) : 88.4

###

Test system: HCC-2998 colon
Assay: NCI-60 one-dose screen, 48 h
Settings: 10 µM unless noted
Compounds without any hit were thinned out: in the full panel of roughly 83,000, 20% have a hit. Calls of active or inactive are those of the source. The calls were made as follows: active = growth percent below 10; inactive = the rest.
Give your call using only these classes: True = active, False = inactive

{"chemical.string": "Oc1ccc(CSc2nnc(-c3cnccn3)n2-c2ccccc2)c2cccnc12", "assigned.category": "False"}
{"chemical.string": "N#Cc1c(NC(=O)c2ccccc2C(F)(F)F)sc2c1CCC(=O)C2", "assigned.category": "False"}
{"chemical.string": "Cc1ccc(/C=C/CC(=O)Nc2ccc(C(=O)Nc3ccc(F)cc3N)cc2)cn1", "assigned.category": "False"}
{"chemical.string": "COC(=O)Nc1ccc(-c2nc(-c3cccc(O)c3)c(-c3ccnc(Br)c3)[nH]2)cc1", "assigned.category": "False"}
{"chemical.string": "C=CCn1c(SCC(=O)Nc2cccc(C(=O)/C=C/c3ccccc3)c2)nc2ccccc2c1=O", "assigned.category": "False"}
{"chemical.string": "O=C(Nc1ccc(F)cc1)c1cc(-c2ccc(F)cc2F)ccc1O", "assigned.category": "False"}
{"chemical.string": "O=C(NCCNc1cc(-c2cn(-c3ccccc3)nc2-c2cccc(O)c2)ccn1)Nc1ccc(Cl)c(C(F)(F)F)c1", "assigned.category": "True"}
{"chemical.string": "O=C1c2c(c3c4cccnc4[nH]c3c3ccc4ccccc4c23)C(=O)N1CCN1CCNCC1", "assigned.category": "False"}

Query: State the result this test recorded for Cc1cc(C(=O)Nc2ccc(SC#N)cc2)c(C)o1 .
Result: False

Query: Hello, I am checking results. What call was entered for COc1ccc(/C=N/Nc2nc(Nc3ccccc3)nc(Nc3ccc(S(N)(=O)=O)cc3)n2)cc1 ?
Result: False
